Test system: Echinochloa crus-galli
ASSAY REMARKS: Post-emergence herbicidal activity against ECHCG
Assay type: in vivo
ASSAY CONTEXT: Echinochloa crus-galli, 504 h, dosage 320 g/ha, rated about 3 weeks after treatment
Experimental: ECHCG: Echinochloa crus-galli HORMU: Hordeum murinum 2. Post-Emergence Herbicidal Action and Crop Plant Compatibility Seeds of monocotyledonous and dicotyledonous weeds and crop plants are placed in sandy loam in plastic or wood-fiber pots, covered with soil and cultivated in a greenhouse under controlled growth conditions. 2 to 3 weeks after sowing, the test plants are treated at the one-leaf stage. […]
Could you please report measured pest or weed control at 320 g/ha for the items listed next?
Answers are plain numbers, in %.

Batch lookup, pest or weed control at 320 g/ha per entry.
1. COC(=O)[C@H]1C[C@@H](NC(=O)C2(C)CC(c3cc(C)cc(Br)c3)=NO2)CO1 (relative stereo)
2. C=CC1(C(=O)NC2=C(C(=O)OCC)COC2)CC(c2cc(F)cc(F)c2)=NO1 (centres unmarked)
3. COC(=O)C1=C[C@@H](NC(=O)C2(C)CC(c3cccc(F)c3)=NO2)CO1 (some centres unmarked)
4. COC(=O)C1COCC1NC(=O)[C@@]1(C)CC(c2cc(F)cc(F)c2)=NO1 (some centres unmarked)
5. C=C[C@]1(C(=O)N[C@H]2CO[C@@H](C(=O)OC(C)C)C2)CC(c2cc(F)cc(F)c2)=NO1 (mixture of isomers)
6. CC(C)(C)OC(=O)[C@H]1C[C@@H](NC(=O)C2(C)CC(c3cccc(F)c3)=NO2)CO1 (mixture of isomers)
7. COC(=O)[C@H]1C[C@H](NC(=O)[C@@]2(C)CC(c3cc(F)cc(F)c3)=NO2)CO1 (mixture of isomers)
8. COC(=O)[C@H]1C[C@@H](NC(=O)C2(OC)CC(c3ccccc3)=NO2)CO1 (relative stereo)

### Response
90
90
100
80
90
80
90
80
